target: Glycogen synthase kinase-3 beta (Homo sapiens, UniProt P49841)
Sequence (P49841 whole entry): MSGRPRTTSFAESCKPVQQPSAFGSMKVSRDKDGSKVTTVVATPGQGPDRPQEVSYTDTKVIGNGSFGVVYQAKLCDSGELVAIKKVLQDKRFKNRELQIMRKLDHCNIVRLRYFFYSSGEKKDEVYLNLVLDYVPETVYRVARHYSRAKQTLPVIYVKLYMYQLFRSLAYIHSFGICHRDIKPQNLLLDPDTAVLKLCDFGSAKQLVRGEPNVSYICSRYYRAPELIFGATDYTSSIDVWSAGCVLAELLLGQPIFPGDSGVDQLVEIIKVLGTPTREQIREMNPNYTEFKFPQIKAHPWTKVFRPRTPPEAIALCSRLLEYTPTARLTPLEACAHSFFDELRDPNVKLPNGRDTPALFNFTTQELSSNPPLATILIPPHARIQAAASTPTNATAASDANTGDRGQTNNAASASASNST
READOUT KIND: IC50 (µM)
Express the result in µM but write the number alone.

[Q] Find IC50 for `COc1cc(C2=C(c3cn(CCCO)c4ccccc34)C(=O)NC2=O)cc(OC)c1OC` on Glycogen synthase kinase-3 beta (Homo sapiens, UniProt P49841) and write it down.
[A] 3.39
